- Species: Rattus norvegicus
- MEASUREMENT PROTOCOL: DrugMatrix - Regimen: Daily Repeat
- Format: toxicity, organism-based, Sprague-Dawley
- Design: regimen Daily Repeat, gender Male, age 6-8 weeks
- STUDY CONDITIONS: in vivo, iv, 0 mg/kg, 120 h, tissue Plasma, dose level Control, time 5 day, vehicle 100 % SALINE
Below, each of the compounds is paired with its reported URIC ACID value.
Answer with a number only, understood to be in mg/dL.

Past entries and their recorded results:
1. CC1(C)S[C@@H]2[C@H](NC(=O)[C@H](NC(=O)N3CCNC3=O)c3ccccc3)C(=O)N2[C@H]1C(=O)O: 2.07
2. NCC[C@H](O)C(=O)N[C@@H]1C[C@H](N)[C@@H](O[C@H]2O[C@H](CN)[C@@H](O)[C@H](O)[C@H]2O)[C@H](O)[C@H]1O[C@H]1O[C@H](CO)[C@@H](O)[C@H](N)[C@H]1O: 0.62
3. CN(N=O)C(=O)N[C@@H](C=O)[C@@H](O)[C@H](O)[C@H](O)CO: 2

Now turn to the next compound.
Ask: Fill in the blank: the reported URIC ACID of CC[C@@]1(O)C(=O)OCc2c1cc1n(c2=O)Cc2cc3ccccc3nc2-1 is ____.
Result: 1.85

* * *

Below, each of the molecules is paired with its reported ABSOLUTE EOSINOPHIL value.
- Species on record: Rattus norvegicus
- MEASUREMENT PROTOCOL: DrugMatrix - Regimen: Daily Repeat
- Format: toxicity, organism-based, Sprague-Dawley
- Design: regimen Daily Repeat, gender Male, age 6-8 weeks
- STUDY CONDITIONS: in vivo, iv, 0 mg/kg, 72 h, tissue Blood, dose level Control, time 3 day, vehicle 100 % SALINE
Answer with a number only, understood to be in CELLS/uL.

Past entries and their recorded results:
1. CC1(C)S[C@@H]2[C@H](NC(=O)[C@H](NC(=O)N3CCNC3=O)c3ccccc3)C(=O)N2[C@H]1C(=O)O: 15.33
2. CN(N=O)C(=O)N[C@@H](C=O)[C@@H](O)[C@H](O)[C@H](O)CO: 247.67
3. CC[C@@]1(O)C(=O)OCc2c1cc1n(c2=O)Cc2cc3ccccc3nc2-1: 21.67

Now turn to the next molecule.
Ask: Fill in the blank: the reported ABSOLUTE EOSINOPHIL of NCC[C@H](O)C(=O)N[C@@H]1C[C@H](N)[C@@H](O[C@H]2O[C@H](CN)[C@@H](O)[C@H](O)[C@H]2O)[C@H](O)[C@H]1O[C@H]1O[C@H](CO)[C@@H](O)[C@H](N)[C@H]1O is ____.
Result: 0

* * *

- Species on record: Rattus norvegicus
- MEASUREMENT PROTOCOL: DrugMatrix - Regimen: Daily Repeat
- Format: toxicity, organism-based, Sprague-Dawley
- Set-up: regimen Daily Repeat, gender Male, age 6-8 weeks
- STUDY CONDITIONS: in vivo, po, 0 mg/kg, 72 h, tissue Blood, route oral GAVAGE, dose level Control, time 3 day, vehicle 100 % WATER
MEASURE NAME: ABSOLUTE EOSINOPHIL (CELLS/uL)
Answer with a number only, understood to be in CELLS/uL.

Past entries and their recorded results:
1) NNC(=O)c1ccncc1: 46
2) COc1ccc(C(CN(C)C)C2(O)CCCCC2)cc1 (stereo not given): 102
3) O=C1NC(=O)C(c2ccccc2)(c2ccccc2)N1: 123.17
4) CC1COc2c(N3CCN(C)CC3)c(F)cc3c(=O)c(C(=O)O)cn1c23 (stereo not given): 0
5) Nc1ccc(S(=O)(=O)Nc2ccnn2-c2ccccc2)cc1: 20.17

Ask: Fill in the blank: the reported ABSOLUTE EOSINOPHIL of CN1CCC[C@H]1c1cccnc1 is ____.
Result: 0

Ask: Also check Cc1cc(NS(=O)(=O)c2ccc(N)cc2)no1
Result: 102

Ask: Also check CC(CCc1ccccc1)NCC(O)c1ccc(O)c(C(N)=O)c1 (stereo not given)
Result: 168.33

Ask: Also check CNCCC=C1c2ccccc2CCc2ccccc21
Result: 123.17

Ask: Also check CC1(C)S[C@@H]2[C@H](NC(=O)[C@H](N)c3ccc(O)cc3)C(=O)N2[C@H]1C(=O)O
Result: 25

* * *

Below, each of the compounds is paired with its reported MEAN CORPUSCULAR HEMOGLOBIN value.
- Organism: Rattus norvegicus
- MEASUREMENT PROTOCOL: DrugMatrix - Regimen: Daily Repeat
- Assay type: toxicity, organism-based, Sprague-Dawley
- Parameters: regimen Daily Repeat, gender Male, age 6-8 weeks
- STUDY CONDITIONS: in vivo, po, 0 mg/kg, 72 h, tissue Blood, route oral GAVAGE, dose level Control, time 3 day, vehicle .5 % CMC
Answer with a number only, understood to be in pg.

Ask: Fill in the blank: the reported MEAN CORPUSCULAR HEMOGLOBIN of NCC(=O)O is ____.
Result: 23.48

Ask: Also check O=c1[nH]cc(F)c(=O)[nH]1
Result: 24.45

* * *

- Species: Rattus norvegicus
- MEASUREMENT PROTOCOL: DrugMatrix - Regimen: Daily Repeat
- Format: toxicity, organism-based, Sprague-Dawley
- Set-up: regimen Daily Repeat, gender Male, age 6-8 weeks
- STUDY CONDITIONS: in vivo, ip, 0 mg/kg, 120 h, tissue Blood, route intraperitoneal, dose level Control, time 5 day, vehicle 100 % SALINE
MEASURE NAME: ABSOLUTE SEGMENTED NEUTROPHIL (cells/µL)
Answer with a number only, understood to be in cells/µL.

Ask: Fill in the blank: the reported ABSOLUTE SEGMENTED NEUTROPHIL of NCC[C@H](O)C(=O)N[C@@H]1C[C@H](N)[C@@H](O[C@H]2O[C@H](CN)[C@@H](O)[C@H](O)[C@H]2O)[C@H](O)[C@H]1O[C@H]1O[C@H](CO)[C@@H](O)[C@H](N)[C@H]1O is ____.
Result: 1170

* * *

- Organism: Rattus norvegicus
- MEASUREMENT PROTOCOL: DrugMatrix - Regimen: Daily Repeat
- Assay type: toxicity, organism-based, Sprague-Dawley
- Set-up: regimen Daily Repeat, gender Male, age 6-8 weeks
- STUDY CONDITIONS: in vivo, po, 0 mg/kg, 120 h, tissue Plasma, route oral GAVAGE, dose level Control, time 5 day, vehicle .5 % CMC
Label Y when CHOLESTEROL is strictly below 70 mg/dL; at or above that, label N.

Ask: Would you kindly verify if CHOLESTEROL of C[C@]12CCC(=O)C=C1CC[C@@H]1[C@@H]2C(=O)C[C@@]2(C)[C@H]1CC[C@]2(O)C(=O)CO [CORTISONE] is strictly less than 70 mg/dL?
Result: Y

Ask: Also check CCOC(=O)OC(C)OC1=C(C(=O)Nc2ccccn2)N(C)S(=O)(=O)c2ccccc21 (centres undefined) [AMPIROXICAM]
Result: Y

Ask: Also check CN1C(C(=O)Nc2ccccn2)=C(O)c2ccccc2S1(=O)=O [PIROXICAM]
Result: N

* * *

- Organism: Rattus norvegicus
- MEASUREMENT PROTOCOL: DrugMatrix - Regimen: Daily Repeat
- Format: toxicity, organism-based, Sprague-Dawley
- Set-up: regimen Daily Repeat, gender Male, age 6-8 weeks
- STUDY CONDITIONS: in vivo, ip, 0.5 mg/kg, […], tissue Blood, route intraperitoneal, dose level High, time 14 day, vehicle 100 % SALINE
MEASURE NAME: ABSOLUTE MONOCYTE (cells/µL)
Answer with a number only, understood to be in cells/µL.

Ask: Fill in the blank: the reported ABSOLUTE MONOCYTE of CISPLATIN is ____.
Result: 180

* * *

- Species: Rattus norvegicus
- MEASUREMENT PROTOCOL: DrugMatrix - Regimen: Daily Repeat
- Format: toxicity, organism-based, Sprague-Dawley
- Set-up: regimen Daily Repeat, gender Male, age 6-8 weeks
- STUDY CONDITIONS: in vivo, po, 0 mg/kg, 72 h, tissue Blood, route oral GAVAGE, dose level Control, time 3 day, vehicle 100 % WATER
MEASURE NAME: ABSOLUTE MONOCYTE
Number first, unit second: that is the form wanted.

Ask: Fill in the blank: the reported ABSOLUTE MONOCYTE of Clc1ccc(C(c2ccccc2Cl)C(Cl)Cl)cc1 (stereo not given) [MITOTANE] is ____.
Result: 169 CELLS/uL

Ask: Also check Nc1ccc(S(=O)(=O)Nc2ccnn2-c2ccccc2)cc1 [SULFAPHENAZOLE]
Result: 166 CELLS/uL

Ask: Also check CN1CCC[C@H]1c1cccnc1 [NICOTINE]
Result: 88.5 CELLS/uL

Ask: Also check Cn1cnc([N+](=O)[O-])c1Sc1ncnc2nc[nH]c12 [AZATHIOPRINE]
Result: 81 CELLS/uL

Ask: Also check O=C1NC(=O)C(c2ccccc2)(c2ccccc2)N1 [PHENYTOIN]
Result: 66.17 CELLS/uL

Ask: Also check CC1COc2c(N3CCN(C)CC3)c(F)cc3c(=O)c(C(=O)O)cn1c23 (stereo not given) [OFLOXACIN]
Result: 88.5 CELLS/uL

Ask: Also check COc1ccc(C(CN(C)C)C2(O)CCCCC2)cc1 (stereo not given) [VENLAFAXINE]
Result: 197.17 CELLS/uL

Ask: Also check CC(C)(S)[C@@H](N)C(=O)O [PENICILLAMINE]
Result: 13.5 CELLS/uL

Ask: Also check CNCCC=C1c2ccccc2CCc2ccccc21 [NORTRIPTYLINE]
Result: 66.17 CELLS/uL

Ask: Also check COc1cccc(C2(O)CCCCC2CN(C)C)c1 (stereo not given) [TRAMADOL]
Result: 43.83 CELLS/uL
